- assay_details: Healthy volunteers, single-dose arm, sc
- Format: in vivo
- condition_set: both, human, plasma, sc, 3 mg, Vd/F, single 3.0 mg sc, mean (SD), n=4
readout_type: Vd/F (L)
Field: numeric (L). Do not append units.

Task item: Recorded Vd/F of CCCC[C@H](NC(C)=O)C(=O)N[C@H]1CCC(=O)NC[C@@H](C(=O)N[C@@H](Cc2c[nH]c3ccccc23)C(N)=O)NC(=O)[C@H](CCCNC(=N)N)NC(=O)[C@@H](Cc2ccccc2)NC(=O)[C@H](Cc2c[nH]cn2)NC1=O , please.
Reply: 375

====

- assay_details: Healthy volunteers, single-dose arm, sc
- Assay type: in vivo
- condition_set: both, human, plasma, sc, 0.1 mg, CL/F, single 0.1 mg sc, mean (SD), n=4
readout_type: CL/F (mL/min)
Unit mL/min implied. Number only.

Task item: I would be grateful if you could share the reported CL/F for CCCC[C@H](NC(C)=O)C(=O)N[C@H]1CCC(=O)NC[C@@H](C(=O)N[C@@H](Cc2c[nH]c3ccccc23)C(N)=O)NC(=O)[C@H](CCCNC(=N)N)NC(=O)[C@@H](Cc2ccccc2)NC(=O)[C@H](Cc2c[nH]cn2)NC1=O .
Reply: 497

====

- assay_details: Healthy volunteers, single-dose arm, sc
- Format: in vivo
- condition_set: both, human, plasma, sc, 3 mg, t½, single 3.0 mg sc, mean (SD), n=6
readout_type: half-life

Task item: Item under review: CCCC[C@H](NC(C)=O)C(=O)N[C@H]1CCC(=O)NC[C@@H](C(=O)N[C@@H](Cc2c[nH]c3ccccc23)C(N)=O)NC(=O)[C@H](CCCNC(=N)N)NC(=O)[C@@H](Cc2ccccc2)NC(=O)[C@H](Cc2c[nH]cn2)NC1=O [PL8177] . Reported half-life?
Reply: 19.5 h

====

- assay_details: Healthy volunteers, single-dose arm, sc
- Type: in vivo
- condition_set: both, human, plasma, sc, 3 mg, CL/F, single 3.0 mg sc, median, n=6
readout_type: CL/F (mL/min)
Write the number in mL/min without appending the unit.

Task item: // lookup CL/F for CCCC[C@H](NC(C)=O)C(=O)N[C@H]1CCC(=O)NC[C@@H](C(=O)N[C@@H](Cc2c[nH]c3ccccc23)C(N)=O)NC(=O)[C@H](CCCNC(=N)N)NC(=O)[C@@H](Cc2ccccc2)NC(=O)[C@H](Cc2c[nH]cn2)NC1=O [PL8177]
Reply: 307

====

- assay_details: Healthy volunteers, single-dose arm, sc
- Assay type: in vivo
- condition_set: both, human, plasma, sc, 1 mg, Vd/F, single 1.0 mg sc, mean (SD), n=3
readout_type: Vd/F (L)
Write the value in L as a bare number.

Task item: Request the reported Vd/F associated with CCCC[C@H](NC(C)=O)C(=O)N[C@H]1CCC(=O)NC[C@@H](C(=O)N[C@@H](Cc2c[nH]c3ccccc23)C(N)=O)NC(=O)[C@H](CCCNC(=N)N)NC(=O)[C@@H](Cc2ccccc2)NC(=O)[C@H](Cc2c[nH]cn2)NC1=O
Reply: 173

====

- assay_details: Healthy volunteers, single-dose arm, sc
- Assay type: in vivo
- condition_set: both, human, plasma, sc, 5 mg, CL/F, single 5.0 mg sc, mean (SD), n=6
readout_type: CL/F
Kindly write the number and append the unit.

Task item: Which CL/F is listed for CCCC[C@H](NC(C)=O)C(=O)N[C@H]1CCC(=O)NC[C@@H](C(=O)N[C@@H](Cc2c[nH]c3ccccc23)C(N)=O)NC(=O)[C@H](CCCNC(=N)N)NC(=O)[C@@H](Cc2ccccc2)NC(=O)[C@H](Cc2c[nH]cn2)NC1=O [PL8177] ?
Reply: 355 mL/min

====

- assay_details: Healthy volunteers, single-dose arm, sc
- Assay type: in vivo
- condition_set: both, human, plasma, sc, 3 mg, t½, single 3.0 mg sc, geometric mean, n=6
readout_type: half-life (h)
Kindly provide the numeric value in h only, without the unit symbol.

Task item: I would be grateful if you could share the reported half-life for CCCC[C@H](NC(C)=O)C(=O)N[C@H]1CCC(=O)NC[C@@H](C(=O)N[C@@H](Cc2c[nH]c3ccccc23)C(N)=O)NC(=O)[C@H](CCCNC(=N)N)NC(=O)[C@@H](Cc2ccccc2)NC(=O)[C@H](Cc2c[nH]cn2)NC1=O [PL8177] .
Reply: 15.2

====

- assay_details: Healthy volunteers, single-dose arm, sc
- Assay type: in vivo
- condition_set: both, human, plasma, sc, 0.1 mg, AUC∞, single 0.1 mg sc, mean (SD), n=4
readout_type: AUC(0-inf) (ng·h/mL)
Write the answer as a number in ng·h/mL, unit excluded.

Task item: Find the recorded AUC(0-inf) belonging to CCCC[C@H](NC(C)=O)C(=O)N[C@H]1CCC(=O)NC[C@@H](C(=O)N[C@@H](Cc2c[nH]c3ccccc23)C(N)=O)NC(=O)[C@H](CCCNC(=N)N)NC(=O)[C@@H](Cc2ccccc2)NC(=O)[C@H](Cc2c[nH]cn2)NC1=O and report it.
Reply: 3.5

====

- assay_details: Healthy volunteers, single-dose arm, sc
- Type: in vivo
- condition_set: both, human, plasma, sc, 5 mg, t½, single 5.0 mg sc, mean (SD), n=6
readout_type: half-life (h)
I only need the number, in h, no unit after it.

Task item: Form field: reported half-life of CCCC[C@H](NC(C)=O)C(=O)N[C@H]1CCC(=O)NC[C@@H](C(=O)N[C@@H](Cc2c[nH]c3ccccc23)C(N)=O)NC(=O)[C@H](CCCNC(=N)N)NC(=O)[C@@H](Cc2ccccc2)NC(=O)[C@H](Cc2c[nH]cn2)NC1=O [PL8177]
Reply: 16.3

====

- assay_details: Healthy volunteers, single-dose arm, sc
- Format: in vivo
- condition_set: both, human, plasma, sc, 5 mg
readout_type: tmax (min)
Kindly provide the numeric value in min only, without the unit symbol.

Task item: Form field: reported tmax of CCCC[C@H](NC(C)=O)C(=O)N[C@H]1CCC(=O)NC[C@@H](C(=O)N[C@@H](Cc2c[nH]c3ccccc23)C(N)=O)NC(=O)[C@H](CCCNC(=N)N)NC(=O)[C@@H](Cc2ccccc2)NC(=O)[C@H](Cc2c[nH]cn2)NC1=O
Reply: 48

====

- assay_details: Healthy volunteers, single-dose arm, sc
- Assay type: in vivo
- condition_set: both, human, plasma, sc, 0.5 mg
readout_type: tmax (min)
The reply should be a number in min, with the unit left off.

Task item: May I ask what tmax has been recorded for CCCC[C@H](NC(C)=O)C(=O)N[C@H]1CCC(=O)NC[C@@H](C(=O)N[C@@H](Cc2c[nH]c3ccccc23)C(N)=O)NC(=O)[C@H](CCCNC(=N)N)NC(=O)[C@@H](Cc2ccccc2)NC(=O)[C@H](Cc2c[nH]cn2)NC1=O ?
Reply: 30

====

- assay_details: Healthy volunteers, single-dose arm, sc
- Type: in vivo
- condition_set: both, human, plasma, sc, 0.5 mg, CL/F, single 0.5 mg sc, mean (SD), n=4
readout_type: CL/F (mL/min)
Return type: number; implicit unit mL/min.

Task item: Consider the compound CCCC[C@H](NC(C)=O)C(=O)N[C@H]1CCC(=O)NC[C@@H](C(=O)N[C@@H](Cc2c[nH]c3ccccc23)C(N)=O)NC(=O)[C@H](CCCNC(=N)N)NC(=O)[C@@H](Cc2ccccc2)NC(=O)[C@H](Cc2c[nH]cn2)NC1=O and give its measured CL/F.
Reply: 477

====

- assay_details: Healthy volunteers, single-dose arm, sc
- Assay type: in vivo
- condition_set: both, human, plasma, sc, 0.5 mg, Vd/F, single 0.5 mg sc, mean (SD), n=2
readout_type: Vd/F
Reply with a number, then the unit it belongs to.

Task item: Vd/F for CCCC[C@H](NC(C)=O)C(=O)N[C@H]1CCC(=O)NC[C@@H](C(=O)N[C@@H](Cc2c[nH]c3ccccc23)C(N)=O)NC(=O)[C@H](CCCNC(=N)N)NC(=O)[C@@H](Cc2ccccc2)NC(=O)[C@H](Cc2c[nH]cn2)NC1=O ?
Reply: 74.4 L

====

- assay_details: Healthy volunteers, single-dose arm, sc
- Type: in vivo
- condition_set: both, human, plasma, sc, 0.5 mg, Cmax, single 0.5 mg sc, mean (SD), n=4
readout_type: Cmax (ng/mL)
Write the value in ng/mL as a bare number.

Task item: Query (molecule): CCCC[C@H](NC(C)=O)C(=O)N[C@H]1CCC(=O)NC[C@@H](C(=O)N[C@@H](Cc2c[nH]c3ccccc23)C(N)=O)NC(=O)[C@H](CCCNC(=N)N)NC(=O)[C@@H](Cc2ccccc2)NC(=O)[C@H](Cc2c[nH]cn2)NC1=O ; field requested: Cmax
Reply: 8.2

====

- assay_details: Healthy volunteers, single-dose arm, sc
- Format: in vivo
- condition_set: both, human, plasma, sc, 3 mg, CL/F, single 3.0 mg sc, mean (SD), n=6
readout_type: CL/F (mL/min)
Give just the numeric value; mL/min need not be written.

Task item: Look up CL/F: CCCC[C@H](NC(C)=O)C(=O)N[C@H]1CCC(=O)NC[C@@H](C(=O)N[C@@H](Cc2c[nH]c3ccccc23)C(N)=O)NC(=O)[C@H](CCCNC(=N)N)NC(=O)[C@@H](Cc2ccccc2)NC(=O)[C@H](Cc2c[nH]cn2)NC1=O [PL8177]
Reply: 322
